- Test Protocol: PK in mice after iv injection of liposomal NA112: plasma
- Type: in vivo
- Condition Details: mouse, 2-compartmental model, mice iv 10 mg/kg in liposomes, read-out: AUC0-00
Quantity: AUC from zero to infinity
Answer with the number, then the unit.

Return reported AUC from zero to infinity; argument: CCC(NC(=O)[C@H](CC(C)C)NC(=O)NCc1ccccc1)C(=O)C(=O)NCc1cc(OC)cc(OC)c1 (mixture of isomers)
17000 ng·h/mL

---

- Test Protocol: PK in mice after iv injection of liposomal NA112: brain
- Type: in vivo
- Condition Details: mouse, iv, 10 mg/kg, mice iv 10 mg/kg liposomes, 16 hr, read-out: Brain concentration A2
Quantity: concentration at 16 h (ng/mL)
Give just the number in ng/mL; leave the unit off.

Consider the molecule shown here: CCC(NC(=O)[C@H](CC(C)C)NC(=O)NCc1ccccc1)C(=O)C(=O)NCc1cc(OC)cc(OC)c1 (mixture of isomers) What is its recorded concentration at 16 h?
9.41
